Just for reference, ChEMBL document CHEMBL1201862 is where these values come from.

Test system: HCC 2998
Assay: NCI tumour cell line growth inhibition, 48 h
Activity calls are given as the source filed them. No stated cut-off is given here; in the data, active = GI50 up to about 1.1 µM and inactive = higher.
Entry note: the call must match one of active, inactive

O=C1C[C@@H](c2ccccc2)O[C@@H](c2ccccc2)C1 = inactive
CC1C(O)[C@@]2(OC[C@@]34C(=O)CC5(O)[C@H](CCC6Cc7nc8c(nc7C[C@]65C)CC5CC[C@@H]6C7=C[C@H]9O[C@@]%10(O[C@@](C)(CO)C[C@@H]%10O)C(C)[C@@]9(O)[C@]7(C)[C@@H](O)CC6[C@]5(C)C8)C3=CC[C@H]4C2C)OC1(C)C (stereo partly drawn) = active
O=C(O)CC12C3C4C5C3C1C5C42 (stereo not drawn) = inactive
COc1ccc(CCNC(=O)c2ccccc2C2c3ccc(OCc4ccccc4)cc3Oc3cc(OCc4ccccc4)ccc32)cc1OC = inactive
Fc1cccc(Cl)c1C1SCc2nc3cc4ccccc4cc3n21 (stereo not drawn) = inactive
NCC1(N2CCOCC2)C2CCCC21CNc1ccccc1 (stereo not drawn) = inactive

Hi, sorry to bother you, what did the test record for N=C(N)C(/N=N\c1ccccc1)C(N)=O (stereo not drawn) ?
inactive

Let us now turn to COc1cc2c[n+](C)c3c4cc(OC)c(OC(C)C)cc4ccc3c2cc1OC
inactive

Also C=CCC1(CN(C)C)CC/C(=C\c2ccc3c(c2)OCO3)C1=O (stereo not drawn) , if possible.
inactive

Now give it for CC1(C)COC(c2ccc(C(F)(F)F)cc2C(O)c2ccc3ccccc3c2)=N1 (stereo not drawn) too.
inactive

Please give the result for C=CC(c1ccccc1)C1(O)c2cccc(O)c2C(=O)c2c(O)cccc21 (stereo not drawn) too.
inactive

// same read-out, input: O=C1c2ccccc2C2(O)N(c3ccccc3)C(=S)N(c3ccccc3)C12O (stereo not drawn)
inactive

Ok, now O=C(N/N=C1\CCc2ccccc2C1)N/N=C1\CCc2ccccc2C1
inactive
